Biological target: hNCX1 (Homo sapiens, UniProt P32418)
Construct: expressed in transfected cells; host or cells: CHO cell lines
Experiment: Cell-based calcium mobilization assay on CHO cell lines expressing NCX1
Conditions: 30 µM
readoutLabel: hNCX1 % block @ 30 µM (%)
State just the number; it will be interpreted in %.

What hNCX1 % block @ 30 µM appears in the records for this molecule with hNCX1 (Homo sapiens, UniProt P32418)? `CCN(CC)CC(=O)Nc1c(C)cccc1C`
6.00

---
What hNCX1 % block @ 30 µM appears in the records for this molecule with hNCX1 (Homo sapiens, UniProt P32418)? `CN=C(N)NC(=O)Nc1c(C)cccc1C`
17.00

What hNCX1 % block @ 30 µM appears in the records for this molecule with hNCX1 (Homo sapiens, UniProt P32418)? CCN(CCO)CCCC(C)Nc1ccnc2cc(Cl)ccc12 (stereo not shown) [SA1068, Hydroxychloroquine]
14

What hNCX1 % block @ 30 µM appears in the records for this molecule with hNCX1 (Homo sapiens, UniProt P32418)? CC(CCc1ccc(O)cc1)NCCc1ccc(O)c(O)c1 (stereo not shown)
15.00
